B1: ZNF449 (parent)
chain: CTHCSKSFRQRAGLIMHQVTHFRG

variants of: B1; experiment: protein stability index of a GFP-peptide fusion (GPS, HEK-293T) (PSI 1-6); higher = more stable; settings: c terminus: a fixed tail appended;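 note: lentivirally expressed fusions sorted by FACS into six bins by GFP to DsRed ratio, PSI derived from sequencing read proportions per bin multiplied by bin number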
Kindly return Condition met if reported protein stability index is no lower than 2; return Condition not met if it is lower.

T20K    Condition met
M16H    Condition met
G24I    Condition met
G13K    Condition met

In: Decide: protein stability index of "Q18T" >= 2?
Out: Condition not met

In: Try "M16P" next.
Out: Condition not met

In: Please give the result for "R11L" too.
Out: Condition met

In: Entry "R9E" please
Out: Condition met

In: Param item: "Q18L"
Out: Condition met

In: How about "R23G" ?
Out: Condition met
